System: Candida albicans
Experiment Description: Antifungal activity against Candida albicans FP633 in RPMI media
Type: functional
*1 amine or outer side, *2 acyl side, *3 side chain or, on linkers, in order; H or OH if unused. Where a SMILES comes first, the peptide text is derived from it. Bridges are numbered along the chain shown (N, C = ends). [ ]: non-standard residue; d: D form. The star is where a group is joined. ξ: configuration not given here. hTyr(3S-OH,4S-OH,3'-OSO3H) = N[C@H](C(=O)O)[C@H](O)[C@@H](O)c1ccc(O)c(OS(=O)(=O)O)c1; Orn(4R-OH,5R-OH) = O=C([C@H](C[C@@H](O)[C@@H](O)N[*:3])N[*:1])[*:2]; X4 = CCCCCCOc1ccc(-c2nnc(-c3ccc(C(=O)*)cc3)s2)cc1; Pro(3S-OH,4S-Me) = C[C@H]1CN[C@H](C(=O)O)[C@H]1O; X1 = CCCCCCOc1ccc(N2CCN(c3ccc(C(=O)*)cc3)CC2)cc1; Gln(3R-OH) = NC(=O)C[C@@H](O)[C@H](N)C(=O)O; Hyp = O=C(O)[C@@H]1C[C@@H](O)CN1; ξThr(3R) = C[C@@H](O)C(N)C(=O)O
The entries below are paired with their reported MIC.
Assay Metric: MIC

- Compound: "CCCCCCOc1ccc(-c2nnc(-c3ccc(C(=O)N[C@H]4C[C@@H](O)[C@@H](O)NC(=O)[C@@H]5[C@@H](O)[C@@H](C)CN5C(=O)[C@H]([C@H](O)CC(N)=O)NC(=O)[C@H]([C@H](O)[C@@H](O)c5ccc(O)c(OS(=O)(=O)[O-])c5)NC(=O)[C@@H]5C[C@@H](O)CN5C(=O)C([C@@H](C)O)NC4=O)cc3)s2)cc1.[Na+] (stereo partly drawn) (X4-[Orn(4R-OH,5R-OH)][ξThr(3R)][Hyp][hTyr(3S-OH,4S-OH,3'-OSO3H)][Gln(3R-OH)][Pro(3S-OH,4S-Me)]; lactam 1-C)"
  Observed Measurement: "0.05 µg/mL"
- Compound: "CCCCCCOc1ccc(N2CCN(c3ccc(C(=O)N[C@H]4C[C@@H](O)[C@@H](O)NC(=O)[C@@H]5[C@@H](O)[C@@H](C)CN5C(=O)[C@H]([C@H](O)CC(N)=O)NC(=O)[C@H]([C@H](O)[C@@H](O)c5ccc(O)c(OS(=O)(=O)[O-])c5)NC(=O)[C@@H]5C[C@@H](O)CN5C(=O)C([C@@H](C)O)NC4=O)cc3)CC2)cc1.[Na+] (stereo partly drawn) (X1-[Orn(4R-OH,5R-OH)][ξThr(3R)][Hyp][hTyr(3S-OH,4S-OH,3'-OSO3H)][Gln(3R-OH)][Pro(3S-OH,4S-Me)]; lactam 1-C)"
  Observed Measurement: "0.1 µg/mL"

---

The entries below are paired with their reported concentration at 0.5 h.
Experiment Description: Concentration in mouse plasma at 5 mg/kg, iv after 30 mins
Type: ADME, organism-based
Design: dose 5 mg/kg, route intravenous
*1 amine or outer side, *2 acyl side, *3 side chain or, on linkers, in order; H or OH if unused. Where a SMILES comes first, the peptide text is derived from it. Bridges are numbered along the chain shown (N, C = ends). [ ]: non-standard residue; d: D form. The star is where a group is joined. ξ: configuration not given here. hTyr(3S-OH,4S-OH,3'-OSO3H) = N[C@H](C(=O)O)[C@H](O)[C@@H](O)c1ccc(O)c(OS(=O)(=O)O)c1; Orn(4R-OH,5R-OH) = O=C([C@H](C[C@@H](O)[C@@H](O)N[*:3])N[*:1])[*:2]; Orn(4R-OH,5S-OH) = O=C([C@H](C[C@@H](O)[C@H](O)N[*:3])N[*:1])[*:2]; Pro(3S-OH,4S-Me) = C[C@H]1CN[C@H](C(=O)O)[C@H]1O; X1 = CCCCCCOc1ccc(N2CCN(c3ccc(C(=O)*)cc3)CC2)cc1; X2 = CCCCCOc1ccc(-c2cc(-c3ccc(C(=O)*)cc3)no2)cc1; Benzoyl(4-octyloxy) = CCCCCCCCOc1ccc(C(=O)*)cc1; Gln(3R-OH) = NC(=O)C[C@@H](O)[C@H](N)C(=O)O; Hyp = O=C(O)[C@@H]1C[C@@H](O)CN1; ξThr(3R) = C[C@@H](O)C(N)C(=O)O
Assay Metric: concentration at 0.5 h

- Compound: "CCCCCCOc1ccc(N2CCN(c3ccc(C(=O)N[C@H]4C[C@@H](O)[C@@H](O)NC(=O)[C@@H]5[C@@H](O)[C@@H](C)CN5C(=O)[C@H]([C@H](O)CC(N)=O)NC(=O)[C@H]([C@H](O)[C@@H](O)c5ccc(O)c(OS(=O)(=O)[O-])c5)NC(=O)[C@@H]5C[C@@H](O)CN5C(=O)C([C@@H](C)O)NC4=O)cc3)CC2)cc1.[Na+] (stereo partly drawn) (X1-[Orn(4R-OH,5R-OH)][ξThr(3R)][Hyp][hTyr(3S-OH,4S-OH,3'-OSO3H)][Gln(3R-OH)][Pro(3S-OH,4S-Me)]; lactam 1-C)"
  Observed Measurement: "18800 ng/mL"
- Compound: "CCCCCCCCOc1ccc(C(=O)N[C@H]2C[C@@H](O)[C@H](O)NC(=O)[C@@H]3[C@@H](O)[C@@H](C)CN3C(=O)[C@H]([C@H](O)CC(N)=O)NC(=O)[C@H]([C@H](O)[C@@H](O)c3ccc(O)c(OS(=O)(=O)[O-])c3)NC(=O)[C@@H]3C[C@@H](O)CN3C(=O)[C@H]([C@@H](C)O)NC2=O)cc1.[Na+] [FR-131535] ({Benzoyl(4-octyloxy)}-[Orn(4R-OH,5S-OH)]T[Hyp][hTyr(3S-OH,4S-OH,3'-OSO3H)][Gln(3R-OH)][Pro(3S-OH,4S-Me)]; lactam 1-C)"
  Observed Measurement: "30300 ng/mL"
- Compound: "CCCCCOc1ccc(-c2cc(-c3ccc(C(=O)N[C@H]4C[C@@H](O)[C@@H](O)NC(=O)[C@@H]5[C@@H](O)[C@@H](C)CN5C(=O)[C@H]([C@H](O)CC(N)=O)NC(=O)[C@H]([C@H](O)[C@@H](O)c5ccc(O)c(OS(=O)(=O)[O-])c5)NC(=O)[C@@H]5C[C@@H](O)CN5C(=O)C([C@@H](C)O)NC4=O)cc3)no2)cc1.[Na+] (stereo partly drawn) (X2-[Orn(4R-OH,5R-OH)][ξThr(3R)][Hyp][hTyr(3S-OH,4S-OH,3'-OSO3H)][Gln(3R-OH)][Pro(3S-OH,4S-Me)]; lactam 1-C)"
  Observed Measurement: "10100 ng/mL"

---

Experiment Description: Hemolytic activity in human erythrocytes at 1 mg/ml
Assay type: ADME, cell-based, Erythrocyte
Protocol Conditions: read-out: Activity
*1 amine or outer side, *2 acyl side, *3 side chain or, on linkers, in order; H or OH if unused. Where a SMILES comes first, the peptide text is derived from it. Bridges are numbered along the chain shown (N, C = ends). [ ]: non-standard residue; d: D form. The star is where a group is joined. hTyr(3S-OH,4S-OH,3'-OSO3H) = N[C@H](C(=O)O)[C@H](O)[C@@H](O)c1ccc(O)c(OS(=O)(=O)O)c1; Orn(4R-OH,5R-OH) = O=C([C@H](C[C@@H](O)[C@@H](O)N[*:3])N[*:1])[*:2]; Pro(3S-OH,4S-Me) = C[C@H]1CN[C@H](C(=O)O)[C@H]1O; X2 = CCCCCOc1ccc(-c2cc(-c3ccc(C(=O)*)cc3)no2)cc1; Gln(3R-OH) = NC(=O)C[C@@H](O)[C@H](N)C(=O)O; Hyp = O=C(O)[C@@H]1C[C@@H](O)CN1

- Compound: "CCCCCOc1ccc(-c2cc(-c3ccc(C(=O)N[C@H]4C[C@@H](O)[C@@H](O)NC(=O)[C@@H]5[C@@H](O)[C@@H](C)CN5C(=O)[C@H]([C@H](O)CC(N)=O)NC(=O)[C@H]([C@H](O)[C@@H](O)c5ccc(O)c(OS(=O)(=O)O)c5)NC(=O)[C@@H]5C[C@@H](O)CN5C(=O)[C@H]([C@@H](C)O)NC4=O)cc3)no2)cc1 (X2-[Orn(4R-OH,5R-OH)]T[Hyp][hTyr(3S-OH,4S-OH,3'-OSO3H)][Gln(3R-OH)][Pro(3S-OH,4S-Me)]; lactam 1-C)"
  hemolysis at 1 mg/ml: "< 20%"

---

Test system: Candida albicans
Experiment Description: Antifungal activity against Candida albicans FP633 in RPMI media
Format: functional
*1 amine or outer side, *2 acyl side, *3 side chain or, on linkers, in order; H or OH if unused. Where a SMILES comes first, the peptide text is derived from it. Bridges are numbered along the chain shown (N, C = ends). [ ]: non-standard residue; d: D form. The star is where a group is joined. ξ: configuration not given here. hTyr(3S-OH,4S-OH,3'-OSO3H) = N[C@H](C(=O)O)[C@H](O)[C@@H](O)c1ccc(O)c(OS(=O)(=O)O)c1; Orn(4R-OH,5R-OH) = O=C([C@H](C[C@@H](O)[C@@H](O)N[*:3])N[*:1])[*:2]; X6 = CCCCCCCOc1ccc(N2CCN(c3ccc(C(=O)*)cn3)CC2)cc1; Pro(3S-OH,4S-Me) = C[C@H]1CN[C@H](C(=O)O)[C@H]1O; X2 = CCCCCOc1ccc(-c2cc(-c3ccc(C(=O)*)cc3)no2)cc1; X3 = CCCCOc1ccc(-c2ccc(-c3ccc(C(=O)*)cc3)cc2)cc1; X5 = CCCCCOc1ccc(-c2cc(-c3ccc(C(=O)*)cc3)on2)cc1; X7 = CCCCCCOc1ccc(C2CCN(c3ccc(C(=O)*)cc3)CC2)cc1; X8 = CCCCCOc1ccc(-c2nc(-c3ccc(C(=O)*)cc3)cs2)cc1; Gln(3R-OH) = NC(=O)C[C@@H](O)[C@H](N)C(=O)O; Hyp = O=C(O)[C@@H]1C[C@@H](O)CN1; ξThr(3R) = C[C@@H](O)C(N)C(=O)O
The entries below are paired with their reported MIC.

- Compound: "CCCCOc1ccc(-c2ccc(-c3ccc(C(=O)N[C@H]4C[C@@H](O)[C@@H](O)NC(=O)[C@@H]5[C@@H](O)[C@@H](C)CN5C(=O)[C@H]([C@H](O)CC(N)=O)NC(=O)[C@H]([C@H](O)[C@@H](O)c5ccc(O)c(OS(=O)(=O)[O-])c5)NC(=O)[C@@H]5C[C@@H](O)CN5C(=O)[C@H]([C@@H](C)O)NC4=O)cc3)cc2)cc1.[Na+] (X3-[Orn(4R-OH,5R-OH)]T[Hyp][hTyr(3S-OH,4S-OH,3'-OSO3H)][Gln(3R-OH)][Pro(3S-OH,4S-Me)]; lactam 1-C)"
  MIC / µg/mL: 0.025
- Compound: "CCCCCCOc1ccc(C2CCN(c3ccc(C(=O)N[C@H]4C[C@@H](O)[C@@H](O)NC(=O)[C@@H]5[C@@H](O)[C@@H](C)CN5C(=O)[C@H]([C@H](O)CC(N)=O)NC(=O)[C@H]([C@H](O)[C@@H](O)c5ccc(O)c(OS(=O)(=O)[O-])c5)NC(=O)[C@@H]5C[C@@H](O)CN5C(=O)C([C@@H](C)O)NC4=O)cc3)CC2)cc1.[Na+] (stereo partly drawn) (X7-[Orn(4R-OH,5R-OH)][ξThr(3R)][Hyp][hTyr(3S-OH,4S-OH,3'-OSO3H)][Gln(3R-OH)][Pro(3S-OH,4S-Me)]; lactam 1-C)"
  MIC / µg/mL: 0.05
- Compound: "CCCCCOc1ccc(-c2cc(-c3ccc(C(=O)N[C@H]4C[C@@H](O)[C@@H](O)NC(=O)[C@@H]5[C@@H](O)[C@@H](C)CN5C(=O)[C@H]([C@H](O)CC(N)=O)NC(=O)[C@H]([C@H](O)[C@@H](O)c5ccc(O)c(OS(=O)(=O)[O-])c5)NC(=O)[C@@H]5C[C@@H](O)CN5C(=O)C([C@@H](C)O)NC4=O)cc3)no2)cc1.[Na+] (stereo partly drawn) (X2-[Orn(4R-OH,5R-OH)][ξThr(3R)][Hyp][hTyr(3S-OH,4S-OH,3'-OSO3H)][Gln(3R-OH)][Pro(3S-OH,4S-Me)]; lactam 1-C)"
  MIC / µg/mL: 0.05
- Compound: "CCCCCOc1ccc(-c2cc(-c3ccc(C(=O)N[C@H]4C[C@@H](O)[C@@H](O)NC(=O)[C@@H]5[C@@H](O)[C@@H](C)CN5C(=O)[C@H]([C@H](O)CC(N)=O)NC(=O)[C@H]([C@H](O)[C@@H](O)c5ccc(O)c(OS(=O)(=O)[O-])c5)NC(=O)[C@@H]5C[C@@H](O)CN5C(=O)C([C@@H](C)O)NC4=O)cc3)on2)cc1.[Na+] (stereo partly drawn) (X5-[Orn(4R-OH,5R-OH)][ξThr(3R)][Hyp][hTyr(3S-OH,4S-OH,3'-OSO3H)][Gln(3R-OH)][Pro(3S-OH,4S-Me)]; lactam 1-C)"
  MIC / µg/mL: 0.05
- Compound: "CCCCCOc1ccc(-c2nc(-c3ccc(C(=O)N[C@H]4C[C@@H](O)[C@@H](O)NC(=O)[C@@H]5[C@@H](O)[C@@H](C)CN5C(=O)[C@H]([C@H](O)CC(N)=O)NC(=O)[C@H]([C@H](O)[C@@H](O)c5ccc(O)c(OS(=O)(=O)[O-])c5)NC(=O)[C@@H]5C[C@@H](O)CN5C(=O)C([C@@H](C)O)NC4=O)cc3)cs2)cc1.[Na+] (stereo partly drawn) (X8-[Orn(4R-OH,5R-OH)][ξThr(3R)][Hyp][hTyr(3S-OH,4S-OH,3'-OSO3H)][Gln(3R-OH)][Pro(3S-OH,4S-Me)]; lactam 1-C)"
  MIC / µg/mL: 0.1
- Compound: "CCCCCCCOc1ccc(N2CCN(c3ccc(C(=O)N[C@H]4C[C@@H](O)[C@@H](O)NC(=O)[C@@H]5[C@@H](O)[C@@H](C)CN5C(=O)[C@H]([C@H](O)CC(N)=O)NC(=O)[C@H]([C@H](O)[C@@H](O)c5ccc(O)c(OS(=O)(=O)[O-])c5)NC(=O)[C@@H]5C[C@@H](O)CN5C(=O)C([C@@H](C)O)NC4=O)cn3)CC2)cc1.[Na+] (stereo partly drawn) (X6-[Orn(4R-OH,5R-OH)][ξThr(3R)][Hyp][hTyr(3S-OH,4S-OH,3'-OSO3H)][Gln(3R-OH)][Pro(3S-OH,4S-Me)]; lactam 1-C)"
  MIC / µg/mL: 0.2
